All figures here come from patent US11260115B1.

Target Desc: HLA-A*02:01 (Homo sapiens, UniProt P04439, D140Y/D185E/D98H/E176V/E277Q/G131W/G231S/I119V/I121R/I166T/I218V/L300P/L318F/N151K/N90K/P208A/P217A/Q86G/Q94H/R138H/R169H/T345S)
Measurement Notes: MHC binding assay (UV-ligand exchange, β2m ELISA, peptide exchange yield)
Condition Notes: binding to HLA-A*02:01
Measured Quantity: Peptide Exchange (MHC class I binding score, peptide exchange yield)

Here is how some substances turned out for Peptide Exchange (MHC class I binding score, peptide exchange yield).
223 (ALWVSQPPEI; listed as Homo sapiens) [compound 223] ... “+++” (>50 = +++)
191 (YIFDGSDGGV; listed as Homo sapiens) [compound 191] ... “+++” (>50 = +++)
27 (AVLGLVWLL; listed as Homo sapiens) [compound 27] ... “+++” (>50 = +++)
99 (ILIFHSVAL; listed as Homo sapiens) [compound 99] ... “+++” (>50 = +++)
255 (YLFEEAISM; listed as Homo sapiens) [compound 255] ... “+++” (>50 = +++)
176 (VLAEQNIIPSA; listed as Homo sapiens) [compound 176] ... “+++” (>50 = +++)
82 (GLQSGVDIGV; listed as Homo sapiens) [compound 82] ... “+++” (>50 = +++)
338 (FLDMTNWNL; listed as Homo sapiens) [compound 338] ... “++++” (>75% = ++++)
362 (ILTELGGFEV; listed as Homo sapiens) [compound 362] ... “+++” (>50 = +++)
5 (ALIFKIASA; listed as Homo sapiens) [compound 5] ... “+++” (>50 = +++)

**Q:** Recorded Peptide Exchange (MHC class I binding score, peptide exchange yield) of 95 (ILGYMAHEHKV; listed as Homo sapiens) [compound 95] , please.
**A:** “++” (>20% = ++)

**Q:** Recorded Peptide Exchange (MHC class I binding score, peptide exchange yield) of 16 (ALPGGAAVAAV; listed as Homo sapiens) [compound 16] , please.
**A:** “++++” (>75% = ++++)

**Q:** Recorded Peptide Exchange (MHC class I binding score, peptide exchange yield) of 170 (TLTFRVETV; listed as Homo sapiens) [compound 170] , please.
**A:** “+++” (>50 = +++)

**Q:** Recorded Peptide Exchange (MHC class I binding score, peptide exchange yield) of 73 (GLLEVISALQL; listed as Homo sapiens) [compound 73] , please.
**A:** “+++” (>50 = +++)

---

Target Desc: HLA-A*02:01 (Homo sapiens, UniProt P04439, D140Y/D185E/D98H/E176V/E277Q/G131W/G231S/I119V/I121R/I166T/I218V/L300P/L318F/N151K/N90K/P208A/P217A/Q86G/Q94H/R138H/R169H/T345S)
Measurement Notes: MHC binding assay (UV-ligand exchange, β2m ELISA, peptide exchange yield)
Condition Notes: binding to HLA-A*02:01
Measured Quantity: Peptide Exchange (MHC class I binding score, peptide exchange yield)

Here is how some substances turned out for Peptide Exchange (MHC class I binding score, peptide exchange yield).
4 (VIAELPPKVSV; listed as Homo sapiens) [compound 4] ... “+++” (>50 = +++)
151 (SLFDSAYGA; listed as Homo sapiens) [compound 151] ... “+++” (>50 = +++)
253 (NLWSVDGEVTV; listed as Homo sapiens) [compound 253] ... “+++” (>50 = +++)
318 (NLQVTQPTV; listed as Homo sapiens) [compound 318] ... “+++” (>50 = +++)
40 (FLDEDDMSL; listed as Homo sapiens) [compound 40] ... “++” (>20% = ++)

**Q:** Recorded Peptide Exchange (MHC class I binding score, peptide exchange yield) of 1 (AIPPSFASIFL; listed as Homo sapiens) [compound 1] , please.
**A:** “+++” (>50 = +++)

**Q:** Recorded Peptide Exchange (MHC class I binding score, peptide exchange yield) of 114 (LIPEGPPQV; listed as Homo sapiens) [compound 114] , please.
**A:** “+++” (>50 = +++)

**Q:** Recorded Peptide Exchange (MHC class I binding score, peptide exchange yield) of 256 (QLLPVSNVVSV; listed as Homo sapiens) [compound 256] , please.
**A:** “+++” (>50 = +++)

**Q:** Recorded Peptide Exchange (MHC class I binding score, peptide exchange yield) of 306 (VVAEELENV; listed as Homo sapiens) [compound 306] , please.
**A:** “++” (>20% = ++)

---

Target Desc: HLA-A*02:01 (Homo sapiens, UniProt P04439, D140Y/D185E/D98H/E176V/E277Q/G131W/G231S/I119V/I121R/I166T/I218V/L300P/L318F/N151K/N90K/P208A/P217A/Q86G/Q94H/R138H/R169H/T345S)
Measurement Notes: MHC binding assay (UV-ligand exchange, β2m ELISA, peptide exchange yield)
Condition Notes: binding to HLA-A*02:01
Measured Quantity: Peptide Exchange (MHC class I binding score, peptide exchange yield)

Here is how some substances turned out for Peptide Exchange (MHC class I binding score, peptide exchange yield).
183 (VLMPTVYQQGV; listed as Homo sapiens) [compound 183] ... “+++” (>50 = +++)
279 (YMAPEVVEA; listed as Homo sapiens) [compound 279] ... “+++” (>50 = +++)
60 (FVLDHEDGLNL; listed as Homo sapiens) [compound 60] ... “+++” (>50 = +++)
319 (QVIPQLQTV; listed as Homo sapiens) [compound 319] ... “+++” (>50 = +++)
70 (FVPDTPVGV; listed as Homo sapiens) [compound 70] ... “+++” (>50 = +++)
197 (YLQEVPILTL; listed as Homo sapiens) [compound 197] ... “++++” (>75% = ++++)

**Q:** Recorded Peptide Exchange (MHC class I binding score, peptide exchange yield) of 177 (VLDDRELLL; listed as Homo sapiens) [compound 177] , please.
**A:** “+++” (>50 = +++)

**Q:** Recorded Peptide Exchange (MHC class I binding score, peptide exchange yield) of 230 (FLQDSKVIFV; listed as Homo sapiens) [compound 230] , please.
**A:** “+++” (>50 = +++)

**Q:** Recorded Peptide Exchange (MHC class I binding score, peptide exchange yield) of 269 (TLTDEQFLV; listed as Homo sapiens) [compound 269] , please.
**A:** “++” (>20% = ++)

**Q:** Recorded Peptide Exchange (MHC class I binding score, peptide exchange yield) of 326 (VLAFLVHEL; listed as Homo sapiens) [compound 326] , please.
**A:** “++++” (>75% = ++++)

**Q:** Recorded Peptide Exchange (MHC class I binding score, peptide exchange yield) of 296 (FIAPTGHSL; listed as Homo sapiens) [compound 296] , please.
**A:** “++” (>20% = ++)

**Q:** Recorded Peptide Exchange (MHC class I binding score, peptide exchange yield) of 291 (ILLNEDDLVTI; listed as Homo sapiens) [compound 291] , please.
**A:** “+++” (>50 = +++)

**Q:** Recorded Peptide Exchange (MHC class I binding score, peptide exchange yield) of 122 (LLIPVVPGV; listed as Homo sapiens) [compound 122] , please.
**A:** “+++” (>50 = +++)

**Q:** Recorded Peptide Exchange (MHC class I binding score, peptide exchange yield) of 94 (ILFPLRFTL; listed as Homo sapiens) [compound 94] , please.
**A:** “+++” (>50 = +++)

**Q:** Recorded Peptide Exchange (MHC class I binding score, peptide exchange yield) of 108 (VIYTLIHYI; listed as Homo sapiens) [compound 108] , please.
**A:** “+++” (>50 = +++)

---

Target Desc: HLA-A*02:01 (Homo sapiens, UniProt P04439, D140Y/D185E/D98H/E176V/E277Q/G131W/G231S/I119V/I121R/I166T/I218V/L300P/L318F/N151K/N90K/P208A/P217A/Q86G/Q94H/R138H/R169H/T345S)
Measurement Notes: MHC binding assay (UV-ligand exchange, β2m ELISA, peptide exchange yield)
Condition Notes: binding to HLA-A*02:01
Measured Quantity: Peptide Exchange (MHC class I binding score, peptide exchange yield)

111 (KLWNVAAPLYL; listed as Homo sapiens) [compound 111] ... “+++” (>50 = +++)
17 (ALTKTNLQL; listed as Homo sapiens) [compound 17] ... “+++” (>50 = +++)
21 (ALWAGLLTL; listed as Homo sapiens) [compound 21] ... “+++” (>50 = +++)
360 (HLIDTNKIQL; listed as Homo sapiens) [compound 360] ... “+++” (>50 = +++)
218 (ALGEEWKGYVV; listed as Homo sapiens) [compound 218] ... “++” (>20% = ++)

**Q:** Recorded Peptide Exchange (MHC class I binding score, peptide exchange yield) of 204 (GLLQINDKIAL; listed as Homo sapiens) [compound 204] , please.
**A:** “+++” (>50 = +++)

**Q:** Recorded Peptide Exchange (MHC class I binding score, peptide exchange yield) of 309 (ILYGTQFVL; listed as Homo sapiens) [compound 309] , please.
**A:** “+++” (>50 = +++)

**Q:** Recorded Peptide Exchange (MHC class I binding score, peptide exchange yield) of 200 (YMFEEVPIVI; listed as Homo sapiens) [compound 200] , please.
**A:** “++++” (>75% = ++++)
